Test: CEETOX_H295R_DOC: CeeTox H295R High-throughput Steroidogenesis Assay for DOC (AID 2283439)
Conditions: actives raise or lower the signal
Calls of active or inactive are those of the source. The calls were made as follows: active = hit-call score of the fitted dose curve at least 0.9, where 1 is the maximum; inactive = score below 0.9.
Allowed answers: active, inactive

Ask: Would you mind telling me which call this test gave C#C[C@]1(O)CC[C@H]2[C@@H]3CCc4cc(OC)ccc4[C@H]3CC[C@@]21C ?
Reply: inactive

Ask: Call for entry CCCCCCS :
Reply: inactive

Ask: What did the test return for Nc1ccc(Oc2cccc(Oc3ccc(N)cc3)c2)cc1 ?
Reply: inactive

Ask: So what was the verdict on c1ccc(B(c2ccccc2)c2ccccc2)cc1 in this test?
Reply: active

Ask: Recorded test call requested for Cc1cccc(N(C)C)c1
Reply: inactive

Ask: Give the logged outcome of this assay for the following compound: CC(=O)Nc1ccc(N=Nc2cc(C)ccc2O)cc1
Reply: inactive

----------
Assay: CCTE_Padilla_ZF_Score.Swim_bladder: CCTE's 144 Hour Post-fertilization zebrafish Assay Score for Swim Bladder Malformation, Padilla Lab (AID 2284408)
Experimental: CCTE_Padilla_ZF_Phenotype_Score is a whole embryo, multiplexed assay using zebrafish ova exposed for 144 hours post fertilization on a 96-well plate.CCTE_Padilla_ZF_Score.Swim_bladder is one of one assay component(s) measured or calculated from the CCTE_Padilla_ZF_Phenotype_Score assay. […] This assay endpoint, CCTE_Padilla_ZF_Score.Swim_bladder, was analyzed in the positive analysis fitting direction relative to DMSO as the negative control and baseline of activity. […]
Calls of active or inactive are those of the source. The calls were made as follows: active = hit-call score of the fitted dose curve at least 0.9, where 1 is the maximum; inactive = score below 0.9.
Would you mind answering with one of these outcomes? active, inactive

Ask: So what was the verdict on O=C(CC(=O)C(F)(F)C(F)(F)F)C(F)(F)F in this test?
Reply: inactive

Ask: Record request — test call for FC(F)(I)C(F)(F)C(F)(F)C(F)(F)I
Reply: active

Ask: Tell me the assay call for OCC(F)(F)C(F)(F)C(F)(F)C(F)F please.
Reply: inactive

Ask: Please share the test call associated with O=S(=O)(O)C(F)(F)C(F)(F)C(F)(F)C(F)(F)C(F)(F)C(F)(F)C(F)(F)F .
Reply: active

Ask: For OCCCC(F)(F)C(F)(F)C(F)(F)F , which call appears in the assay record?
Reply: inactive

Ask: # lookup: test call for O=C(O)C(F)(OC(F)(F)C(F)(OC(F)(F)C(F)(OC(F)(F)C(F)(F)C(F)(F)F)C(F)(F)F)C(F)(F)F)C(F)(F)F (configuration not stated)
Reply: inactive

Ask: What is the recorded call for this molecule in the test? FC(F)(Br)C(F)(F)C(F)(F)C(F)(F)C(F)(F)C(F)(F)Br
Reply: inactive

Ask: Give the logged outcome of this assay for the following molecule: FC(F)(F)C(F)(F)C(F)(F)CI
Reply: inactive

Ask: Which outcome was assigned to C=C(C)C(=O)OCC(F)(F)C(F)(F)C(F)(F)C(F)(F)C(F)(F)C(F)(F)C(F)(F)F in this test?
Reply: inactive

Ask: Please share the test call associated with FC(F)(F)C(F)(F)C(F)(F)C(F)(F)C(F)(F)C(F)(F)C(F)(F)C(F)(F)CCS .
Reply: inactive

Ask: I'd appreciate the recorded outcome for FC(F)(F)C(F)(F)C(F)(F)C(F)(F)CCI from this test.
Reply: inactive

Ask: Test call for this molecule, please: O=C(O)C=C(C(F)(F)F)C(F)(F)F
Reply: inactive

Ask: Dear colleague, could you share the recorded outcome for O=C(O)C(F)(F)C(F)(F)OC(F)(F)F when you have a moment?
Reply: inactive

Ask: Please let me know the test result on file for OCC(F)(F)C(F)(F)C(F)(F)C(F)(F)C(F)(F)C(F)(F)F .
Reply: inactive

Ask: How was FC(F)(F)C(F)(F)C(F)(F)C(F)(F)C(F)(F)CCI classified in this test?
Reply: active

Ask: What outcome does the record of this test show for O=C(O)C(F)(F)C(F)(F)C(F)F ?
Reply: inactive

Ask: For O=C(O)C(F)(F)C(F)(F)C(F)(F)F , what call appears in the results of this test?
Reply: inactive

Ask: Would you mind telling me which call this test gave FC(F)(F)C(F)(F)C(F)(F)C(F)(F)C(F)(F)C(F)(F)C(F)(F)C(F)(F)F ?
Reply: inactive

Ask: Fill in: this test's call for Cc1ccc(S(=O)(=O)OCC(F)(F)C(F)(F)C(F)(F)C(F)(F)C(F)(F)C(F)F)cc1 is ___
Reply: active

Ask: Given C=CC(F)(F)C(F)(F)C(F)(F)C(F)(F)C(F)(F)C(F)(F)C(F)(F)C(F)(F)F , state the outcome it received in this test.
Reply: inactive

Ask: How was C=C(C)C(=O)OCCC(F)(F)C(F)(F)C(F)(F)C(F)(F)C(F)(C(F)(F)F)C(F)(F)F classified in this test?
Reply: inactive

Ask: Which outcome was entered for the molecule C=CC(=O)OCC(F)(F)C(F)(F)C(F)(F)C(F)(F)C(F)(F)C(F)(F)C(F)(F)F in this test?
Reply: inactive

Ask: // outcome(item) with item = O=S(=O)(OCC(F)F)C(F)(F)F
Reply: inactive

Ask: Entry FC(F)(F)C(F)(F)CNCC(F)(F)C(F)(F)F : call = ?
Reply: active

Ask: Hi, do you know how O=C(O)C(F)(F)C(F)(F)C(F)(F)C(F)(F)C(F)(F)C(F)(F)C(F)(F)C(F)(F)Cl came out in this test?
Reply: active

Ask: Hello, I am checking results. What call was entered for O=P(O)(O)OCCC(F)(F)C(F)(F)C(F)(F)C(F)(F)C(F)(F)C(F)(F)F ?
Reply: inactive

Ask: For this molecule, state the assay outcome: NC(=O)C(F)(F)C(F)(F)C(F)(F)C(F)(F)F
Reply: inactive

----------
Experiment: Tanguay_ZF_120hpf_CRAN: Oregon State University Tanguay Lab 120 Hour Post-fertilization zebrafish Assay for Craniofacial Malformation (AID 2284397)
Activity calls are given as the source filed them. The calls were made as follows: active = hit-call score of the fitted dose curve at least 0.9, where 1 is the maximum; inactive = score below 0.9.
Answer with one of the outcomes class 1 (active), class 0 (inactive)

Ask: Per the assay record, what outcome was assigned to O=C(O)C(F)(OC(F)(F)C(F)(OC(F)(F)C(F)(F)C(F)(F)F)C(F)(F)F)C(F)(F)F (configuration not stated) ?
Reply: class 0

Ask: Give the logged outcome of this assay for the following molecule: CCCCCCCCC(F)(F)C(F)(F)C(F)(F)C(F)(F)C(F)(F)C(F)(F)F
Reply: class 0

Ask: Just curious, what result did FC(F)(F)C(F)(F)C(F)(F)N(C(F)(F)C(F)(F)C(F)(F)F)C(F)(F)C(F)(F)C(F)(F)F get here?
Reply: class 0

Ask: Check the results log: what was the call for O=C(O)C(F)(F)C(F)(F)C(F)(F)F ?
Reply: class 0

Ask: Dear colleague, could you share the recorded outcome for OCC(F)(F)C(F)(F)C(F)(F)C(F)(F)C(F)(F)C(F)(F)F when you have a moment?
Reply: class 0

Ask: Returns: the outcome recorded for COC(=O)CCC(F)(F)C(F)(F)C(F)(F)C(F)(F)F in this assay.
Reply: class 0

Ask: Each molecule tested received a call. Report the one for FC(F)(F)C(F)(F)C(F)(F)C(F)(F)CCI .
Reply: class 0

Ask: Outcome logged for OCC(F)(F)C(F)(F)C(F)(F)C(F)(F)C(F)(F)C(F)F in this assay:
Reply: class 0

Ask: What classification did O=C(O)C(F)(F)C(F)(F)C(F)(F)C(F)(F)C(F)(F)C(F)(F)C(F)(F)C(F)(F)Cl end up with in this test?
Reply: class 1

Ask: Returns: the outcome recorded for OCC(F)(F)C(F)(F)C(F)(F)C(F)F in this assay.
Reply: class 0

Ask: Call for entry OCC(F)(F)C(F)(F)C(F)(F)F :
Reply: class 0

Ask: I'd appreciate the recorded outcome for O=S(=O)(O)C(F)(F)C(F)(F)C(F)(F)C(F)(F)C(F)(F)C(F)(F)C(F)(F)F from this test.
Reply: class 1

----------
Assay: CCTE_Shafer_MEA_dev_network_spike_number: CCTE's Neural Network Formation Assay for Number of Network Spikes, Shafer Lab (AID 2284048);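 also: synchronized bursts across electrodes counted on days 5 7 9 12 and integrated as AUC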
The source made the active and inactive calls. The calls were made as follows: active = hit-call score of the fitted dose curve at least 0.9, where 1 is the maximum; inactive = score below 0.9.
readout-name: outcome

As a guide, the following entries are already answered.
> print(dat)
                                     smiles  obs.value
1   FC(F)(F)C(F)(F)C(F)(F)C(F)(F)C(F)(F)CCI   inactive
2       NC(=O)C(F)(F)C(F)(F)C(F)(F)C(F)(F)F   inactive
3                OCCCC(F)(F)C(F)(F)C(F)(F)F   inactive
4                  OCC(F)(F)C(F)(F)C(F)(F)F   inactive
5  N=C(N)C(F)(F)C(F)(F)C(F)(F)C(F)(F)C(F)(F)C(F)(F)C(F)(F)F   inactive

Here is another molecule to look at.
Ask: Item under review: O=S(=O)(OCCOC(F)(F)F)C(F)(F)F . Reported outcome?
Reply: inactive
